Would you mind telling me the reported pIC50 of each entry?
biological target: UniProtKB P06278; test: Inhibitory activity against Bacillus licheniformis alpha amylase; conditions: read-out: IC50
Sequence (P06278 whole entry): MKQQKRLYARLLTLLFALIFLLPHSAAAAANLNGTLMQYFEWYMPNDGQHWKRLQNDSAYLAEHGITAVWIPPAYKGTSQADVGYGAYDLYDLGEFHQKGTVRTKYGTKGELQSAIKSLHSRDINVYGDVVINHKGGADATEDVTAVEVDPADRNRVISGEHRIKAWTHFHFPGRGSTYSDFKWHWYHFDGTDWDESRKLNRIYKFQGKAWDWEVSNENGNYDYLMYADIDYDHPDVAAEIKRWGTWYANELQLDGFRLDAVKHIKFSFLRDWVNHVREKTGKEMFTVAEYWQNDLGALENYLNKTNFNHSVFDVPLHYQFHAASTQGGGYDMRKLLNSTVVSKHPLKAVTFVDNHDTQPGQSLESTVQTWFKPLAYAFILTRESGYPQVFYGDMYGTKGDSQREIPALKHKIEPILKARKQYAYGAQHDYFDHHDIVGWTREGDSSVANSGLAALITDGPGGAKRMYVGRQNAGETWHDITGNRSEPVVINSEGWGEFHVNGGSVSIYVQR
One number for each entry, as −log10 of the molar value.

Known results for compounds:
smiles-structure: Cc1ccc(S(=O)(=O)Nc2ccc(C(=O)/C=C/c3ccc(O)cc3)cc2)cc1
pIC50: 4.06

smiles-structure: Cc1ccc(S(=O)(=O)Nc2cccc(C(=O)/C=C/c3ccc(O)c(O)c3)c2)cc1
pIC50: 4.77

smiles-structure: Cc1ccc(S(=O)(=O)Nc2cccc(C(=O)/C=C/c3ccc(O)cc3)c2)cc1
pIC50: 4.43

smiles-structure: Nc1ccc(C(=O)/C=C/c2ccc(O)cc2)cc1
pIC50: 3.57

Qu. Can you share its pIC50? I mean this compound: Cc1ccc(S(=O)(=O)Nc2ccc(C(=O)/C=C/c3ccc(O)c(O)c3)cc2)cc1
Ans. 3.71

* * *

assay: Inhibitory activity against baker's yeast alpha glucosidase; set-up: species or system Saccharomyces cerevisiae
measured-quantity: pKi
One number for each entry, as −log10 of the molar value.

Known results for compounds:
smiles-structure: Cc1ccc(S(=O)(=O)Nc2cccc(C(=O)/C=C/c3ccc(O)cc3)c2)cc1
pKi: 5.13
--
smiles-structure: Cc1ccc(S(=O)(=O)Nc2ccc(C(=O)/C=C/c3ccc(O)c(O)c3)cc2)cc1
pKi: 6.62
--
smiles-structure: Cc1ccc(S(=O)(=O)Nc2cccc(C(=O)/C=C/c3ccc(O)c(O)c3)c2)cc1
pKi: 5.03

Below: the item to evaluate.
Qu. Can you share its pKi? I mean this compound: Cc1ccc(S(=O)(=O)Nc2ccc(C(=O)/C=C/c3ccc(O)cc3)cc2)cc1
Ans. 6.24

* * *

molecular target: Beta-amylase (Hordeum vulgare) (UniProt P16098); experiment: Inhibitory activity against barley beta amylase at 200 uM
Sequence (P16098 whole entry): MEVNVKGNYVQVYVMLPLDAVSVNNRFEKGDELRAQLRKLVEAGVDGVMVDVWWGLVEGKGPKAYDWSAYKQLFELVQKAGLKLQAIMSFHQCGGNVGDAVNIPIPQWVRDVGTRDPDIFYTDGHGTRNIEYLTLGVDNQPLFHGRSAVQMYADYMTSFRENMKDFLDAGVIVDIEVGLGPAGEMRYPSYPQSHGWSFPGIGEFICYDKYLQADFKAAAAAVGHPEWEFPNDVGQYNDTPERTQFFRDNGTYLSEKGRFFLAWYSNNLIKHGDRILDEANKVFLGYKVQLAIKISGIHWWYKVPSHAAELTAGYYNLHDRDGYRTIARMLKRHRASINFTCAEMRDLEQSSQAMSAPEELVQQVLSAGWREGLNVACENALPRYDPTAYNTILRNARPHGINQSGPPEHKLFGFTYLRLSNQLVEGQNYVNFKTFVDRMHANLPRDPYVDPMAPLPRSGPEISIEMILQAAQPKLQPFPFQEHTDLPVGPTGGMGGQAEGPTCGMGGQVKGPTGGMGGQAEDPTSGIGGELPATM
Activity calls are given as the source filed them. The rule behind the calls is not given here.
measured-quantity: Activity

smiles-structure: O=C(/C=C/c1cc(O)ccc1O)c1ccccc1
Activity: inactive
//
smiles-structure: O=C(/C=C/c1cccc(O)c1O)c1ccccc1
Activity: inactive
//
smiles-structure: O=c1c(O)c(-c2ccc(O)c(O)c2)oc2cc(O)cc(O)c12
Activity: inactive
//
smiles-structure: O=C(/C=C/c1ccc(O)cc1O)c1ccccc1
Activity: inactive
//
smiles-structure: O=C(/C=C/c1cccc(O)c1)c1ccc(O)cc1
Activity: inactive

Below: the item to evaluate.
Qu. Can you share its Activity? I mean this compound: O=C(/C=C/c1ccc(O)c(O)c1)c1ccccc1
Ans. inactive
